# method-description: NCI Yeast Anticancer Drug Screen. Data for the bub3 strain (AID 167)
# stated-conditions: S. cerevisiae bub3 mutant strain, at 50.0 µM
This is part of a sample that, as a whole, favours compounds with a hit. Of some 79,000 tested, about 15% had one in any assay. Activity calls are given as the source filed them. Cut-off read from the data, not from the text of the source: active = growth inhibition above about 70%; inactive = the rest.
Your reply should match one of these outcome classes. active, inactive

Solved entries (count: 5):
S=C1CC(c2ccccc2)Sc2ccccc2N1 (centres undefined) = inactive
O=C(OC1CCCC1OC(=O)c1ccccc1)c1ccccc1 (centres undefined) = inactive
Cc1ccc2c(c1)Cc1cc(C)ccc1-2 = inactive
O=C(O)C1(O)CC(O)C(O)C(O)C1 (centres undefined) = inactive
C=C(C)CC1(C)C(=O)CCC1O (centres undefined) = inactive

Assay result, entry COC1OC(COS(=O)(=O)c2ccc(C)cc2)C(N(C)C(C)=O)C1OS(=O)(=O)c1ccc(C)cc1 (centres undefined) — outcome?
inactive

Assay result, entry Nc1ccc(S(=O)(=O)O)c(N)c1 — outcome?
inactive

Assay result, entry Cc1nc(-c2ccccc2)[nH]c(=O)c1Cc1cc2c(cc1O)OCC2 — outcome?
inactive

Assay result, entry Cc1ccnc(NS(=O)(=O)c2ccc(N=Cc3ccccc3O)cc2)n1 — outcome?
inactive

Assay result, entry CC(C)(C)N=C(N)NC#N — outcome?
inactive

Assay result, entry CC1CC=C2C=C(Cl)C=CC2(C)C1C (centres undefined) — outcome?
inactive

Assay result, entry O=[N+]([O-])c1ccc(N(CCO)CCO)nc1 — outcome?
inactive

Assay result, entry Nc1cc(Cl)cc2[nH]c(=O)c3cc(Cl)ccc3c12 — outcome?
inactive

Assay result, entry CCOC(=O)C(C)c1nc2cc(C(F)(F)F)ccc2[nH]c1=O (centres undefined) — outcome?
inactive

Assay result, entry N#Cc1ccc2ccccc2c1 — outcome?
inactive

---

# method-description: NCI Yeast Anticancer Drug Screen. Data for the cln2 rad14 strain (AID 165);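 note: 0% = growth equal to vehicle treated cultures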
# stated-conditions: S. cerevisiae cln2 rad14 strain, at 50.0 µM, hits give high values
This is part of a sample that, as a whole, favours compounds with a hit. Of some 79,000 tested, about 15% had one in any assay.
quantity-measured: growth inhibition (%)
Entry rule: numbers only, all in %.

Solved entries (count: 3):
O=C(O)COc1cc2c(cc1Cc1ccc3c(c1)OCO3)OCO2 = 1.15
O=C(COc1ccc(Cl)cc1)N1N=C(c2ccc(Cl)cc2)CC1(O)c1ccccc1 (stereo not given) = 0.85
O=C(CC1C(=O)Nc2ccccc2S1=O)Nc1ccc(Cl)cc1 (stereo not given) = 18.4

State, in one line, measured growth inhibition of O=C(CC(=O)N1CCOCC1)N1CCOCC1
7.9

---

# method-description: NCI Yeast Anticancer Drug Screen. Data for the rad50 strain (AID 155);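 note: 0% = growth of vehicle-only cultures of the same strain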
# stated-conditions: S. cerevisiae rad50 strain growth inhibition; at 50.0 µM; hits give high values
About 79,000 compounds went through this panel and 15% of them were active in at least one assay; those are over-represented in the sample as a whole.
quantity-measured: growth inhibition (%)
Entry rule: numbers only, all in %.

Solved entries (count: 5):
O=C(O)CSc1n[nH]c(-c2ccco2)n1 = -4.05
Cc1ccc(S(=O)(=O)/C=C(\I)c2ccc([N+](=O)[O-])cc2)cc1 = 98.8
CCOP(=O)(OCCN(C)C)C(c1ccccc1)c1ccccc1 (stereo unspecified) = 19.9
O=c1c2ccccc2nc(-c2ccccc2Cl)n1/N=C/c1ccc(Cl)cc1Cl = -1.1
C1=CCC(C(Cc2ccccc2)N2CCCCC2)CC1 (stereo unspecified) = 15.8

State, in one line, measured growth inhibition of CC1(C)CC(=O)C=C(NCCCCCCCCNC2=CC(=O)CC(C)(C)C2)C1
-0.25

State, in one line, measured growth inhibition of O=C(O)c1cc2ccccc2c2cc3ccccc3cc12
28.6

State, in one line, measured growth inhibition of N=S(=O)(c1ccccc1)c1ccccc1[N+](=O)[O-] (stereo unspecified)
41.4

State, in one line, measured growth inhibition of CCC1=CC(=O)C(CC)=CC1=O
3.05

State, in one line, measured growth inhibition of CC1C=CC(C)N(c2nnnn2C)N1c1nnnn1C (stereo unspecified)
-11.6

State, in one line, measured growth inhibition of CCOC(=O)CCC(NC(=O)c1ccc(Nc2cnc3ccc(C(F)(F)F)cc3n2)cc1)C(=O)OCC (stereo unspecified)
24.3

---

# method-description: NCI Yeast Anticancer Drug Screen. Data for the bub3 strain (AID 167)
# stated-conditions: S. cerevisiae bub3 mutant strain, at 50.0 µM, hits give high values
Compounds without any hit were thinned out: in the full panel of roughly 79,000, 15% have a hit.
Known growth inhibition of a selection of compounds
Entry rule: numbers only, all in %.

CC1CCCCN1CCCO (stereo unspecified) = -14.6
CC(C)=C(C)CCC(C)CC(C)O (stereo unspecified) = -5.9
Cc1cccc(C(=O)OCc2ccccc2CN2CCCC2)c1 = -2.05
Fc1ccc2nc3ccccc3c(SCCNCCSc3c4ccccc4nc4ccc(F)cc34)c2c1 = 1.5
CCOC(=O)c1c(-c2ccc(Cl)cc2)c(C#N)c(=S)n(C2OC(COC(C)=O)C(OC(C)=O)C(OC(C)=O)C2OC(C)=O)c1-c1ccccc1 (stereo unspecified) = 17.9

State, in one line, measured growth inhibition of CC(=O)Oc1ccc2c(c1)CCC1C2CCC2(C)CC(OC(C)=O)CC12 (stereo unspecified)
0.8

---

# method-description: NCI Yeast Anticancer Drug Screen. Data for the bub3 strain (AID 167)
# stated-conditions: S. cerevisiae bub3 mutant strain, at 50.0 µM, hits give high values
Compounds without any hit were thinned out: in the full panel of roughly 79,000, 15% have a hit.
quantity-measured: growth inhibition (%)
Entry rule: numbers only, all in %.

Solved entries (count: 5):
COc1ccc(-c2cc(=O)c3c(O)cc(O)c(-c4cc(-c5cc(=O)c6c(O)cc(OC)cc6o5)ccc4OC)c3o2)cc1 = 27.3
CN1COc2c(ccc3c4c(ccc23)CN(C)CO4)C1 = 1.75
CN1c2ccccc2SC1(C)CCC(=O)O (configuration not stated) = 29.6
O=C(NC(=O)C1(C(=O)O)CCCC1)Nc1ccccc1 = 27.4
NCCNCc1ccccc1 = -1.8

State, in one line, measured growth inhibition of C=CCN1C2Cc3cc(OC)c(OC)cc3C1Cc1cc(OC)c(OC)cc12
-16.2

State, in one line, measured growth inhibition of Cn1c(=O)c2c(nc(NCCOC(=S)S)n2C)n(C)c1=O
5.3

State, in one line, measured growth inhibition of CCOC(=O)/C(C#N)=C/c1ccccc1F
14.8

State, in one line, measured growth inhibition of CCOC(=O)C1=NC(c2ccccc2)N(c2ccccc2)C1c1ccccc1 (configuration not stated)
10.3

State, in one line, measured growth inhibition of Cc1cc(C)n(-c2nnc(-n3nc(C)cc3C)c3ccccc23)n1
-5.5

State, in one line, measured growth inhibition of NC(=O)Cc1c[nH]c2ccc(Br)cc12
-20.7

---

# method-description: NCI Yeast Anticancer Drug Screen. Data for the mec2-1 strain (AID 157)
# stated-conditions: S. cerevisiae mec2-1 strain, at 50.0 µM, hits give high values
The panel holds about 79,000 compounds, 15% with a hit somewhere; the sample as a whole holds those more often.
quantity-measured: growth inhibition (%)
Entry rule: numbers only, all in %.

CCOc1ccc(NC(=O)C(=O)CC(=O)C2=C(C)Nc3ccccc3S2)cc1 = 14.8
CCCCNC(=O)c1cccc(OC)c1OC = -1.55
Nc1nnc2nc(CC(=O)c3ccccn3)/c(=C/C(=O)c3ccccn3)n12 = -13.7
CCCCCC1(C)OCC(c2ccccc2)O1 (stereo not given) = -9.45
C[C@H](CCC(c1ccccc1)c1ccccc1)[C@H]1CC[C@H]2[C@@H]3CC[C@@H]4C[C@H](O)CC[C@]4(C)C3=CC[C@]12C = -15.3

State, in one line, measured growth inhibition of Nc1nc2c(c(=O)[nH]1)NC(CCNc1ccc(C(=O)NC(CCC(=O)O)C(=O)O)cc1)CN2 (stereo not given)
14.9

State, in one line, measured growth inhibition of O=C(OCC(O)C(O)C(O)C(SCc1ccccc1)SCc1ccccc1)c1ccc([N+](=O)[O-])cc1 (stereo not given)
3.1

State, in one line, measured growth inhibition of Nc1ccc(S(=O)(=O)c2ccc(Nc3ccnc4cc(Cl)ccc34)cc2)cc1
13.6

State, in one line, measured growth inhibition of N#CC1(N=Cc2ccc3c(c2)OCO3)c2ccccc2-c2ccccc21
6.85

State, in one line, measured growth inhibition of c1cc(Cc2ccsc2)cs1
4.1

---

# method-description: NCI Yeast Anticancer Drug Screen. Data for the cln2 rad14 strain (AID 165);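 note: 0% = growth equal to vehicle treated cultures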
# stated-conditions: S. cerevisiae cln2 rad14 strain, at 50.0 µM, hits give high values
About 79,000 compounds went through this panel and 15% of them were active in at least one assay; those are over-represented in the sample as a whole.
Classify as follows. Reported growth inhibition greater than or equal to 10%: YES. Reported growth inhibition below: NO.

Solved entries (count: 3):
O=C(Nc1ccccc1)Nc1ccccc1C(=O)O = NO
Cc1ccc(CN(CCO)Cc2ccccc2)cc1 = NO
COC(=O)C(Cc1ccccc1)NC(=O)C1CSC(C)(C)N1C=O (configuration not stated) = NO

Textbook exercise: given the entry O=C(CN1C(=O)c2ccccc2C1=O)OCC(=O)c1ccccc1 , state whether its growth inhibition is greater than or equal to 10%.
NO

Textbook exercise: given the entry O=C1CCCC1C(O)(C(F)(F)F)C(F)(F)F (configuration not stated) , state whether its growth inhibition is greater than or equal to 10%.
YES

Textbook exercise: given the entry Clc1ccc(C=NC23CC4CC(CC(C4)C2)C3)cc1Cl , state whether its growth inhibition is greater than or equal to 10%.
YES

Textbook exercise: given the entry COC(=O)CCC(=O)Nc1ccc(Cl)cc1C , state whether its growth inhibition is greater than or equal to 10%.
NO

Textbook exercise: given the entry Cc1ccoc1 , state whether its growth inhibition is greater than or equal to 10%.
YES

Textbook exercise: given the entry c1ccc(-c2cc(-c3cc(-c4ccccc4)n(-c4ccccc4)n3)nn2-c2ccccc2)cc1 , state whether its growth inhibition is greater than or equal to 10%.
NO

Textbook exercise: given the entry Nc1cc2c3c(cccc3c1Br)C(=O)NC2=O , state whether its growth inhibition is greater than or equal to 10%.
YES

Textbook exercise: given the entry Clc1ccccc1SSc1ccccc1Cl , state whether its growth inhibition is greater than or equal to 10%.
NO

Textbook exercise: given the entry COc1cccc2c1C(=N)c1c(O)c3c(c(O)c1C2=O)C[C@@](O)(C(=O)CO)C[C@@H]3OC1CC(N)C(O)C(C)O1 (some centres not stated) , state whether its growth inhibition is greater than or equal to 10%.
YES
